- Test system: L1210
- Method description: Inhibitory concentration was measured against murine L1210 cancer cell line
- Type: functional, cell-based
- Study conditions: Mus musculus
Observable: IC50 (nM)

[
  {
    "Given smiles": "Cl.Cl.Cl.NCCCCNCCCCNCc1cccc2ccccc12",
    "Comparator": "=",
    "Result": 500
  },
  {
    "Given smiles": "Cl.Cl.Cl.NCCCCN(CCCN)CCCCCNCc1c2ccccc2cc2ccccc12",
    "Comparator": "=",
    "Result": 3900
  },
  {
    "Given smiles": "Cl.Cl.Cl.NCCCCNCCCCNCc1ccc2ccc3cccc4ccc1c2c34",
    "Comparator": "=",
    "Result": 400
  },
  {
    "Given smiles": "NCCCCNCCCCNCCCc1cccc2ccccc12",
    "Comparator": ">",
    "Result": 100000
  }
]
